# measured_target: E. coli PdxI (Escherichia coli)
# Sequence (P25906 whole entry): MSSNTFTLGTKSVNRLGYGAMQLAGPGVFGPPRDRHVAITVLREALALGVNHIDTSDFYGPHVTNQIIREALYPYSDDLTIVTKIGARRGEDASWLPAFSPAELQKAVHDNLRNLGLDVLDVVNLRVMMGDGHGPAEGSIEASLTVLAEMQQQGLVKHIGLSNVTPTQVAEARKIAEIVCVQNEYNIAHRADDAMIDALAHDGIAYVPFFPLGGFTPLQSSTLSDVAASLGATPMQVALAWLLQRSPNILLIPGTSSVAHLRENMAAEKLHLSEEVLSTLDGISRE
# test_details: Isothermal titration calorimetry
# Type: binding
# measurement_context: ligand alone titrated into PdxI, 20°C, pH 7.4; NB = non-binding ligand
Kd values, listed per item
Give just the number in µM; leave the unit off.

>  <compound_structure_string>
NC(=O)C1=CN([C@@H]2O[C@H](COP(=O)(O)OP(=O)(O)OC[C@H]3O[C@@H](n4cnc5c(N)ncnc54)[C@H](OP(=O)(O)O)[C@@H]3O)[C@@H](O)[C@H]2O)C=CC1

>  <measured_target>
E. coli PdxI (Escherichia coli)

>  <Kd (µM)>
4.2

$$$$

Kindly review the next compound as well.
Reading of Kd for `NC(=O)c1ccc[n+]([C@@H]2O[C@H](COP(=O)([O-])OP(=O)(O)OC[C@H]3O[C@@H](n4cnc5c(N)ncnc54)[C@H](OP(=O)(O)O)[C@@H]3O)[C@@H](O)[C@H]2O)c1` with E. coli PdxI (Escherichia coli): 46.3

====

# measured_target: E. coli PdxI (Escherichia coli)
# test_details: Isothermal titration calorimetry
# Format: binding
result_type: Kd (nM)
Write the value in nM as a bare number.

Lab note: `Cc1ncc(CO)c(C=O)c1O` gave Kd of 24

====

# measured_target: E. coli PdxI (Escherichia coli)
# test_details: Differential scanning fluorimetry
# Assay type: binding
# measurement_context: read-out: apparent dissociation constant; from changes of Tm as a function of NADP(H) concentration; 2 μM PdxI, 20 mM KPi pH 7.3
result_type: pKd
Scale: negative log10 of molar concentration, which is what pKd denotes.

>  <compound_structure_string>
NC(=O)C1=CN([C@@H]2O[C@H](COP(=O)(O)OP(=O)(O)OC[C@H]3O[C@@H](n4cnc5c(N)ncnc54)[C@H](OP(=O)(O)O)[C@@H]3O)[C@@H](O)[C@H]2O)C=CC1

>  <meas_value>
4.09

$$$$

Please look at the following molecule next.
// pKd lookup, molecule = `NC(=O)c1ccc[n+]([C@@H]2O[C@H](COP(=O)([O-])OP(=O)(O)OC[C@H]3O[C@@H](n4cnc5c(N)ncnc54)[C@H](OP(=O)(O)O)[C@@H]3O)[C@@H](O)[C@H]2O)c1` , result: 3.07
